- assayed target: Calcitonin gene-related peptide type 1 receptor (Homo sapiens, UniProt O60894+Q16602)
- Sequence (Q16602 whole entry, one chain of several): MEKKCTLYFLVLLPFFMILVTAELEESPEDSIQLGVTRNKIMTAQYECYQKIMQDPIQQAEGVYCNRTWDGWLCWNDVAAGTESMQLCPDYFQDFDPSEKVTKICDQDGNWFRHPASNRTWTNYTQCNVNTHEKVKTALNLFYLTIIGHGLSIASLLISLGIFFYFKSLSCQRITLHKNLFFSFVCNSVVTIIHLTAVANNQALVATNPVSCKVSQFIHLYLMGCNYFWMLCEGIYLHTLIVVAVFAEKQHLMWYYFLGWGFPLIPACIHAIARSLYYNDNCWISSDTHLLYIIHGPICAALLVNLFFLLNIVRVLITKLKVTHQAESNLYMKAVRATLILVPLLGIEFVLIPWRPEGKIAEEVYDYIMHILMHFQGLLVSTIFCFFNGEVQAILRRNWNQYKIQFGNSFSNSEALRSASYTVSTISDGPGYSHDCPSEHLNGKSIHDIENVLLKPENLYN
- assay protocol: Displacement of […] expressed in HEK293 cells coexpressing human RAMP1
pKi: −log10 of the molar value.
value type: pKi

# annotated cases, reported pKi shown
# molecule, assayed target, pKi
data = [
    ("CN1C(=O)NC(=O)[C@@]12Cc1cc3nc(Cn4c(=O)n(-c5ccccn5)c5ccccc54)oc3cc1C2", "Calcitonin gene-related peptide type 1 receptor (Homo sapiens, UniProt O60894+Q16602)", 5.22),
    ("CN1C(=O)NC(=O)[C@]12Cc1ccc(NC(=O)Cn3c(=O)n(-c4ccccn4)c4ccccc43)c(F)c1C2", "Calcitonin gene-related peptide type 1 receptor (Homo sapiens, UniProt O60894+Q16602)", 7.26),
    ("CCC12CC(=O)Nc3cccc(c31)N(Cc1ccc3cc4c(cc3n1)C[C@@]1(C4)C(=O)NC(=O)N1C)C2 (stereo partly drawn)", "Calcitonin gene-related peptide type 1 receptor (Homo sapiens, UniProt O60894+Q16602)", 8.89),
]

A. CN1C(=O)NC(=O)[C@@]12Cc1cc3ccc(CN4CC5(C)CC(=O)Nc6cccc4c65)nc3cc1C2 (stereo partly drawn)
B. CN1C(=O)NC(=O)[C@@]12Cc1cc3ccc(Cn4c(=O)n5c6c(cccc64)NC(=O)C5)nc3cc1C2
C. O=C1Cn2c(=O)n(Cc3ccc4cc5c(cc4n3)C[C@@]3(C5)C(=O)Nc4ncccc43)c3cccc(c32)N1
Lookup: // sort entries: pKi, high to low Would you mind listing the labels in the order requested?
Found: C, B, A
(C: 10.64, B: 9.52, A: 9.28)

P. O=C1CCc2ccccc2N1Cc1ccc2cc3c(cc2n1)C[C@@]1(C3)C(=O)Nc2ncccc21
Q. CN1C(=O)NC(=O)C12Cc1cc3ncc(Cn4c(=O)n(-c5ccccn5)c5ccccc54)nc3cc1C2 (stereo not drawn)
Lookup: Given P and given Q , which shows the smaller recorded pKi? Your answer should be the label of the entry you select.
Found: Q

---

- assayed target: Calcitonin gene-related peptide type 1 receptor (Homo sapiens, UniProt O60894+Q16602)
- assay protocol: Displacement of […] expressed in HEK293 cells coexpressing human RAMP1
value type: Ki (nM)

# annotated cases, reported Ki shown
# molecule, value type, observed measurement
rows = [
    ("CCC12CC(=O)Nc3cccc(c31)N(Cc1ccc3cc4c(cc3n1)C[C@@]1(C4)C(=O)Nc3ncccc31)C2 (some centres undefined)", "Ki", 0.072),
    ("CN1C(=O)NC(=O)[C@@]12Cc1cc3ccc(CN4C(=O)CCc5ccccc54)nc3cc1C2", "Ki", 8.9),
    ("CN1C(=O)NC(=O)[C@]12Cc1cc3ccc(Cn4c(=O)n(-c5ccccn5)c5ccccc54)nc3cc1C2", "Ki", 17),
    ("CN1C(=O)NC(=O)[C@@]12Cc1cc3ccc(CN4CC5CC(=O)Nc6cccc4c65)nc3cc1C2 (some centres undefined)", "Ki", 1.5),
    ("CN1C(=O)Cn2c(=O)n(Cc3ccc4cc5c(cc4n3)C[C@@]3(C5)C(=O)NC(=O)N3C)c3cccc1c32", "Ki", 3),
]

1. CC12CC(=O)Nc3cccc(c31)N(Cc1ccc3cc4c(cc3n1)C[C@@]1(C4)C(=O)Nc3ncccc31)C2 (some centres undefined)
2. O=C1CC2CN(Cc3ccc4cc5c(cc4n3)C[C@@]3(C5)C(=O)Nc4ncccc43)c3cccc(c32)N1 (some centres undefined)
Lookup: Parameter check: reported Ki is higher for which label, 1 or 2 ? Your answer should be the label of the entry you select.
Found: 2

a. CN1C(=O)NC(=O)[C@]12Cc1cc(F)c(NC(=O)Cn3c(=O)n(-c4ccccn4)c4ccccc43)cc1C2
b. CN1C(=O)Cn2c(=O)n(Cc3ccc4cc5c(cc4n3)C[C@@]3(C5)C(=O)Nc4ncccc43)c3cccc1c32
Lookup: Given a and given b , which shows the smaller recorded Ki? Your answer should be the label of the entry you select.
Found: b

From: ChEMBL document CHEMBL1156995
